Test system: Mycobacterium intracellulare
Assay: Antibacterial activity against Mycobacterium intracellular ATCC 23068
Format: functional, organism-based
Property Measured: IC50 (µg/mL)
Kindly answer with a numeric value in µg/mL, unit omitted.

Answered cases to consult:
[I-].c1ccc(CCCCC[n+]2cccc3sc4ccccc4c32)cc1 yielded IC50 of 1.5

Short answer for CN(C)c1ccc2sc3ccc[n+](C)c3c2c1 : IC50 was 15

So, O=C(O)c1cn(C2CC2)c2cc(N3CCNCC3)c(F)cc2c1=O [CIPROFLOXACIN] ? Its IC50 was 0.35

Measured IC50, C[n+]1c2ccccc2cc2sc3ccccc3c21.O=S(=O)([O-])C(F)(F)F : 15

Sure, the documented IC50 for C[n+]1c2ccccc2cc2[nH]c3ccccc3c21.[I-] [CRYPTOLEPTINE IODIDE] is 15

// below: IC50 requested for another compound
The recorded IC50 for entry C[n+]1c2ccc(C(=O)O)cc2cc2sc3ccccc3c21.[I-] equals 20

###

System: Mycobacterium intracellulare
Assay: Antibacterial activity against Mycobacterium intracellular ATCC 23068
Assay type: functional, organism-based
# maps each entry to its IC50

Worked cases, answers included:
Measured IC50 of C[n+]1cccc2sc3ccccc3c21.[I-] : > 20 µg/mL

Briefly, IC50 measured for COc1ccc2c(c1)cc1sc3ccccc3c1[n+]2C.[I-] : > 20 µg/mL

Now examine the next entry.
Form: compound = C[n+]1cccc2sc3ccc([N+](=O)[O-])cc3c21.[I-] ; IC50 = > 20 µg/mL

FYI, the data here is from ChEMBL document CHEMBL1145530.
